conditions: in methanol, 293.15 K

>  <sample.smiles>
c1ccc2[nH]cnc2c1

>  <solubility (mole fraction)>
0.105

$$$$

---

conditions: in methanol, 318.15 K
experimental.endpoint: solubility (mole fraction)

>  <sample.smiles>
c1ccc2[nH]cnc2c1

>  <value.measured>
0.157

$$$$

---

conditions: in sec-butanol, 323.15 K

>  <sample.smiles>
c1ccc2[nH]cnc2c1

>  <solubility (mole fraction)>
0.162

$$$$

---

settings: in 2-butanone, 283.15 K

>  <sample.smiles>
c1ccc2[nH]cnc2c1

>  <solubility (mole fraction)>
0.0222

$$$$

---

conditions: in n-butyl acetate, 288.15 K
experimental.endpoint: solubility (mole fraction)

>  <sample.smiles>
c1ccc2[nH]cnc2c1

>  <experimental.endpoint>
solubility (mole fraction)

>  <value.measured>
0.00759

$$$$

From: BigSolDB 2.1
